testSummary: TOX21_p53_BLA_p2_viability: Viability Assessment in the Tox21 HCT-116 p53 Agonism Beta-lactamase Assay, Phase 2 (AID 2283591);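 note: compound exposure lasted 16 h at 37 °C; actives lower the ATP signal meaning cytotoxicity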
Inconclusive results are not listed. Calls of active or inactive are those of the source. Rule for the calls: active = hit-call score of the fitted dose curve at least 0.9, where 1 is the maximum; inconclusive = response in the unintended direction; inactive = score below 0.9. Where a SMILES comes first, the peptide text is derived from it. [ ]: non-standard residue; d: D form. pGlu = O=C1CC[C@@H](C(=O)O)N1
observable: outcome

Some compounds with known outcome results, for comparison:
compound	outcome
Cc1cc(O)c2ccccc2c1O	inactive
CC[C@H](CC[C@@H](C)[C@H]1CC[C@H]2[C@@H]3CC=C4C[C@@H](O)CC[C@]4(C)[C@H]3CC[C@]12C)C(C)C	inactive
CN1CCN(c2c(F)cc3c(=O)c(C(=O)O)cn(CCF)c3c2F)CC1	inactive
ON=C1CCCC1	inactive
COc1cc(NC(C)CCCN)c2ncccc2c1 (centres undefined)	inactive

Please give outcome for each item listed below.
1. CCN1CCC[C@H]1CNC(=O)c1cc(S(N)(=O)=O)ccc1OC
2. O=C(O)CCC(=O)C(=O)O

1. inactive
2. inactive

Please give outcome for each item listed below.
1. CC[C@H](C)[C@H](NC(=O)[C@H](Cc1ccccc1)NC(=O)[C@H](C)NC(=O)[C@H](CC(=O)O)NC(=O)[C@H](CCCCN)NC(=O)[C@H](CO)NC(=O)[C@@H]1CCCN1C(=O)[C@@H]1CCC(=O)N1)C(=O)NCC(=O)N[C@@H](CC(C)C)C(=O)N[C@@H](CCSC)C(N)=O ([pGlu]PSKDAFIGLM-NH2)
2. CC(C)OC(=O)c1cc2c(OCC(O)CNC(C)(C)C)cccc2[nH]1 (centres undefined)

["inactive", "inactive"]
